Reported Activity values are given for each entry in this list.
# assay-target: UniProt:P05067
# Sequence (P05067 whole entry): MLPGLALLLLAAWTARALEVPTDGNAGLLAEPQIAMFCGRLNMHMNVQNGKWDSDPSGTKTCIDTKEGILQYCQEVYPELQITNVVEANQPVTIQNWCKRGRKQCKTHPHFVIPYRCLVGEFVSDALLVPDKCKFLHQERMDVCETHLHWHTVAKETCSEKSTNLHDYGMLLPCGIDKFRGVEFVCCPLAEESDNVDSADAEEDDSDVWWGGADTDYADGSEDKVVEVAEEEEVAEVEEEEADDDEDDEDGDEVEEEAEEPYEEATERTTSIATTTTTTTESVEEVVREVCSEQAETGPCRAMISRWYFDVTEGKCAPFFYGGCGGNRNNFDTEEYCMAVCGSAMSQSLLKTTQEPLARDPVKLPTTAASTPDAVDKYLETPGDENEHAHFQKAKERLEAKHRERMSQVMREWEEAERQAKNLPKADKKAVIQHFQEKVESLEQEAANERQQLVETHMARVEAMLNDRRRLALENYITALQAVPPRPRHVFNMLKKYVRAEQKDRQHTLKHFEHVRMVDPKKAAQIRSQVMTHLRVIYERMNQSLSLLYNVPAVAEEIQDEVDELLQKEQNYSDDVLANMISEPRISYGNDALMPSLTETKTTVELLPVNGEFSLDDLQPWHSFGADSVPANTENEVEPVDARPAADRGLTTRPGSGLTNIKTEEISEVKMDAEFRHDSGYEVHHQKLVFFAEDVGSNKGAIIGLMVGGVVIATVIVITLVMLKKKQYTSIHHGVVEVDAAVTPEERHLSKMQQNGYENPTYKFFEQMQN
# assay-details: Inhibition of Amyloid beta (1 to 42) (unknown origin) aggregation assessed as reduction in experimental fluorescence platea at 10 to 1 ratio of compound to amyloid beta (1 to 42) incubated for 48 hrs fluorescence-detected ThT-binding assay
# Parameters: scale not given: the % may be the effect or the level left
Starred links: 1 amine or outer side, 2 acyl side, 3 side chain; linkers in the order of their positions; H or OH if unused. Non-standard residues stand in square brackets, D forms with d. Residues, ends and D or L forms follow the SMILES beside them. X3 = C[C@H](O)CN(N[*:1])C(=O)NN(CCCCN)C(=O)[*:2]; X2 = CC(C)CN(NC(=O)N(C)N[*:1])C(=O)[*:2]
Numeric only. Scale: %

>  <compound>
CC(=O)NN(C[C@H](C)O)C(=O)NN(CCCCN)C(=O)N[C@@H](CO)C(=O)N[C@@H](Cc1ccc(O)cc1)C(=O)N[C@@H](Cc1c[nH]c2ccccc12)C(=O)N[C@@H](CCCCN)C(=O)NN(C)C(=O)NN(CC(C)C)C(=O)NCC(N)=O (Ac-[X3]SYWK[X2]G-NH2)

>  <assay-target>
UniProt:P05067

>  <u>
%

>  <Activity>
41

$$$$

In the following, a different compound is considered.
Qu. Specify the recorded Activity for CC(=O)N[C@H](C(=O)N[C@@H](CCCCN)C(=O)N[C@@H](CO)C(=O)N[C@@H](Cc1ccc(O)cc1)C(=O)N[C@@H](Cc1c[nH]c2ccccc12)C(=O)N[C@@H](CCCCN)C(=O)NN(C)C(=O)NN(CC(C)C)C(=O)NCC(N)=O)[C@@H](C)O (Ac-TKSYWK[X2]G-NH2) , system: UniProt:P05067.
Ans. 30

###

# assay-details: Plasma stability in human plasma assessed as degraded peptide at 1 uM measured after 2 hrs by UPLC-MS/MS analysis
# Assay type: ADME, cell-free
Starred links: 1 amine or outer side, 2 acyl side, 3 side chain; linkers in the order of their positions; H or OH if unused. Non-standard residues stand in square brackets, D forms with d. Residues, ends and D or L forms follow the SMILES beside them. *: point of attachment. X2 = CC(C)CN(NC(=O)N(C)N[*:1])C(=O)[*:2]; X1 = C[C@H](O)CN(N)C(=O)NN(CCCCN)C(=O)*
measurement-type: metabolised at 2 h, 1 µM (%)
Numeric only. Scale: %

Qu. # return recorded metabolised at 2 h, 1 µM for input CC(C)CN(NC(=O)N(C)NC(=O)[C@H](CCCCN)NC(=O)[C@H](Cc1c[nH]c2ccccc12)NC(=O)[C@H](Cc1ccc(O)cc1)NC(=O)[C@H](CO)NC(=O)N(CCCCN)NC(=O)N(N)C[C@H](C)O)C(=O)NCC(N)=O (X1-SYWK[X2]G-NH2)
Ans. 6
